Here the recorded TGI is given for each entry.
- Test system: IGROV1 ovarian
- PROTOCOL DETAILS: NCI tumour cell line growth inhibition, 48 h

Example compounds with recorded TGI:
>  <COMPOUND>
Clc1ccc(N=C/C=C/Nc2ccc(Cl)cn2)nc1

>  <MEASUREMENT LABEL>
TGI

>  <RESULT>
28.9 µM

$$$$
>  <COMPOUND>
CC(C(=O)N1C(=O)N(C(=O)C(C)C(O)c2ccccc2)C(c2ccccc2)C1c1ccccc1)C(O)c1ccccc1 (stereo not given)

>  <MEASUREMENT LABEL>
TGI

>  <RESULT>
> 100 µM

$$$$
>  <COMPOUND>
CNc1ncnc(Sc2nc(N)nc3nc[nH]c23)c1[N+](=O)[O-]

>  <MEASUREMENT LABEL>
TGI

>  <RESULT>
22.1 µM

$$$$
>  <COMPOUND>
CCOC(=O)CC(=O)NC1CC2CCC1(C)C2(C)C (stereo not given)

>  <MEASUREMENT LABEL>
TGI

>  <RESULT>
> 100 µM

$$$$

Turning now to a further compound:
Entry under review: `O=C1NC(=O)C(C(=O)C(=O)Nc2ccc(Br)cc2)C(=O)N1` . Reported TGI? > 100 µM
